A collection of molecules and their measured 590 nm absorbance normalized to zero hour (substrate use), 9 hr
Test system: NHBE cells
Assay: Biolog metabolic array: substrate use by NHBE cells with or without CA09 infection
Format: cell-based, human
Details: Virus: CA09-infected NHBE cells, MOI 1; Biolog PMM2; 9 hr

Form: Entry = C[C@@H]1OC(O)[C@@H](O)[C@H](O)[C@@H]1O (some centres unmarked) | System = NHBE cells | 590 nm absorbance normalized to zero hour (substrate use), 9 hr = ____
0.54

Others:
Short answer please: 590 nm absorbance normalized to zero hour (substrate use), 9 hr, NHBE cells, entry O=C(O)CC(O)(CC(=O)O)C(=O)O
3.10

Next molecule: CO[C@H]1O[C@H](CO)[C@@H](O)[C@H](O)[C@@H]1O [a-Methyl-D-Mannoside]
1.10

Then this molecule: OC[C@H]1O[C@@H](O[C@H]2[C@H](O)[C@@H](O)[C@H](O)O[C@@H]2CO)[C@H](O)[C@@H](O)[C@@H]1O
3.54

Now the molecule OC[C@@H](O)[C@@H](O)[C@@H](O)CO
0.42

What about this molecule? OC[C@H]1O[C@@H](OC[C@H]2OC(O)[C@H](O)[C@@H](O)[C@@H]2O)[C@H](O)[C@@H](O)[C@@H]1O (some centres unmarked)
1.79

# repeat for O[C@H]1[C@H](O)[C@@H](O)[C@H](O)[C@@H](O)[C@H]1O
1.20

Same again, this time with OC[C@H]1O[C@@](CO)(O[C@H]2O[C@H](CO)[C@@H](O)[C@H](O)[C@H]2O)[C@@H](O[C@H]2O[C@H](CO)[C@@H](O)[C@H](O)[C@H]2O)[C@@H]1O
4.49

###

System: NHBE cells
Assay: Biolog metabolic array: substrate use by NHBE cells with or without CA09 infection
Format: cell-based, human
Conditions: Virus (CA09-infected NHBE cells, MOI 1); 1 hr
// reported 590 nm absorbance normalized to zero hour (substrate use), 1 hr for each item listed

Here's what some known entries look like.
Sample C[C@@H]1OC(O)[C@@H](O)[C@H](O)[C@@H]1O (stereo partly shown) — what was its 590 nm absorbance normalized to zero hour (substrate use), 1 hr?
0.21

How about OC[C@@H](O)[C@@H](O[C@H]1O[C@H](CO)[C@@H](O)[C@H](O)[C@H]1O)[C@H](O)[C@@H](O)CO ?
1.05

Please give the result for C[C@H](O)[C@H](O)[C@@H](O)[C@@H](O)C=O too.
0.16

Field: next molecule
Looking for the measured 590 nm absorbance normalized to zero hour (substrate use), 1 hr of OC[C@H]1O[C@@H](OC[C@H]2OC(O)[C@H](O)[C@@H](O)[C@@H]2O)[C@H](O)[C@@H](O)[C@@H]1O (stereo partly shown) , can you help?
1.23

###

System: NHBE cells
Assay: Biolog metabolic array: substrate use by NHBE cells with or without CA09 infection
Type: cell-based, human
Details: Virus (CA09-infected NHBE cells, MOI 1); 10 hr
Entries and their 590 nm absorbance normalized to zero hour (substrate use), 10 hr
Reply with just the number.

Recorded results for 4 compounds are shown here.
Which value of 590 nm absorbance normalized to zero hour (substrate use), 10 hr has been reported for OC[C@@H](O)[C@@H](O)CO [i-Erythritol] in the records?
0.50

Try C[C@@H](O)[C@H](O)[C@H](O)[C@@H](O)C=O [D-Fucose] next.
0.57

Nc1ncnc2c1ncn2[C@@H]1O[C@H](CO)[C@@H](O)[C@H]1O [Adenosine] ?
2.56

Can you handle C[C@H](O)[C@H](O)[C@@H](O)[C@@H](O)C=O [L-Rhamnose] next?
0.43

Continuing:
Looking for the measured 590 nm absorbance normalized to zero hour (substrate use), 10 hr of C[C@@H]1OC(O)[C@@H](O)[C@H](O)[C@@H]1O (stereo partly drawn) [L-Fucose] , can you help?
0.57

###

Test system: NHBE cells
Assay: Biolog metabolic array: substrate use by NHBE cells with or without CA09 infection
Format: cell-based, human
Details: Virus: CA09-infected NHBE cells, MOI 1; Biolog PMM2; 9 hr
Lab note - cut at 1 for 590 nm absorbance normalized to zero hour (substrate use), 9 hr: criterion met if strictly below, criterion not met if not.

Past entries and their recorded results:
Threshold test, 590 nm absorbance normalized to zero hour (substrate use), 9 hr < 1: OCC1OC(OC2C(CO)OC(OC3C(CO)OC(O)C(O)C3O)C(O)C2O)C(O)C(O)C1O (stereo not drawn)
criterion not met

Note, next up: O=C(O)C(O)C(O)C(=O)O (stereo not drawn)
criterion not met

Shift focus to the following entry.
Lab log: compare recorded 590 nm absorbance normalized to zero hour (substrate use), 9 hr with 1; is it strictly lower for OC[C@H]1O[C@H](O[C@H]2O[C@H](CO)[C@@H](O)[C@H](O)[C@H]2O)[C@H](O)[C@@H](O)[C@@H]1O ?
criterion not met

###

IC50 values, listed per item
Test system: NHBE cells
Experiment: cells
Format: cell-based, human
Conditions: […]; dose response 4 nM to 10 μM; […]; read-out: IC50, Therapeutic Treatment, Viral Infected
Respond with the bare value in µM.

Solved entries (count: 2):
Name the reported IC50 value associated with the compound O=C([O-])CC(O)C(=O)[O-].[Na+].[Na+] (racemic) [DISODIUM DL-MALATE HYDRATE]
7

What do you get for CSCC[C@H](NC(=O)[C@H](Cc1ccccc1)NC[C@@H](NC[C@@H](N)CS)C(C)C)C(=O)O ?
0.2

With those in mind, consider the next compound.
Bench note: what IC50 did O=[N+]([O-])c1ccc(O)c([N+](=O)[O-])c1 show?
4

###

System: NHBE cells
Assay: cells
Assay type: cell-based, human
Settings: Homo sapiens, NHBE, 72 h, read-out: IC50, Therapeutic Treatment, Control
Measured Attribute: pIC50
Interpret pIC50 as the negative base-10 log of the concentration measured in mol/L.

What value of pIC50 on NHBE cells does CCc1c(-c2ccccc2)c(-c2ccccc2)nn1-c1ccccc1-c1cccc(OCC(=O)O)c1 [FABP4 Inhibitor] have?
5.40

Here's the next entry for you.
Field: pIC50 (NHBE cells). Entry: Cn1cncc1[C@@](N)(c1ccc(Cl)cc1)c1ccc2c(c1)c(-c1cccc(Cl)c1)cc(=O)n2C [Tipifarnib]
7.89

###

System: NHBE cells
Experiment: Biolog metabolic array: substrate use by NHBE cells with or without CA09 infection
Format: cell-based, human
Conditions: Virus: CA09-infected NHBE cells, MOI 1; Biolog PMM2; 4 hr
Measured Attribute: 590 nm absorbance normalized to zero hour (substrate use), 4 hr
Respond using a number only.

Which 590 nm absorbance normalized to zero hour (substrate use), 4 hr is listed for OC[C@H]1O[C@H](OC[C@H]2OC(O)(CO)[C@@H](O)[C@@H]2O)[C@H](O)[C@@H](O)[C@@H]1O (stereo partly drawn) [Palatinose] ?
0.29

Can you check OC[C@H]1O[C@H](OC[C@H]2O[C@H](OC[C@H]3O[C@H](O[C@]4(CO)O[C@H](CO)[C@@H](O)[C@@H]4O)[C@H](O)[C@@H](O)[C@@H]3O)[C@H](O)[C@@H](O)[C@H]2O)[C@H](O)[C@@H](O)[C@H]1O [Stachyose] next?
2.07

// next record CC[C@H](O)C(=O)O (racemic) [D,L-a-Hydroxy-Butyric Acid]
1.84

Thanks! And O=C[C@H](O)[C@@H](O)[C@H](O)[C@H](O)CO [D-(+)-Glucose] ?
1.96

Also C[C@@H](O)[C@H](O)[C@H](O)[C@@H](O)C=O [D-Fucose] , if possible.
0.64

Same for COC(=O)CCC(=O)O [Mono Methyl Succinate]
2.04

Repeat for the following compound: C[C@H](O)[C@H](O)[C@@H](O)[C@@H](O)C=O [L-Rhamnose]
0.28

Likewise for CCC(=O)O [Propionic Acid] ?
0.93

Continuing:
Recorded 590 nm absorbance normalized to zero hour (substrate use), 4 hr of CC(=O)CC(=O)O [Acetoacetic Acid] , please.
1.54

Another compound to check: O=C(CO)[C@@H](O)[C@H](O)[C@H](O)COP(=O)(O)O [D-Fructose-6-Phosphate]
0.94

Can you handle OC[C@@H](O)[C@@H](O)[C@H](O)[C@@H](O)CO [D-Sorbitol] next?
3.35

Would you kindly repeat that for OC[C@H]1OC(O)[C@@H](O)[C@@H](O)[C@@H]1O (stereo partly drawn) [D-Mannose] ?
3.06

What do you get for COC(=O)[C@@H](C)O [Methyl D-Lactate] ?
2.64

Another compound to check: O=C(CO)[C@@H](O)[C@@H](O)[C@H](O)CO [D-Tagatose]
0.30

Another compound to look at: OC[C@H]1O[C@H](OC[C@H]2O[C@H](O[C@]3(CO)O[C@H](CO)[C@@H](O)[C@@H]3O)[C@H](O)[C@@H](O)[C@@H]2O)[C@H](O)[C@@H](O)[C@H]1O [D-Raffinose]
0.49

Proceed to COC(=O)C(C)=O [Methyl Pyruvate]
2.51

And for OCC1OC(OC2C(CO)OC(OC3C(CO)OC(O)C(O)C3O)C(O)C2O)C(O)C(O)C1O (stereo not drawn) [Malto-triose] ?
4.08

// next record C[C@@H](O)CC(=O)O [b-Hydroxy-Butyric Acid]
2.77
